Target: DPP-IV from pig kidney (pig, UniProt P22411 38-766, limits assumed)
Sequence (P22411 38-766 limits assumed): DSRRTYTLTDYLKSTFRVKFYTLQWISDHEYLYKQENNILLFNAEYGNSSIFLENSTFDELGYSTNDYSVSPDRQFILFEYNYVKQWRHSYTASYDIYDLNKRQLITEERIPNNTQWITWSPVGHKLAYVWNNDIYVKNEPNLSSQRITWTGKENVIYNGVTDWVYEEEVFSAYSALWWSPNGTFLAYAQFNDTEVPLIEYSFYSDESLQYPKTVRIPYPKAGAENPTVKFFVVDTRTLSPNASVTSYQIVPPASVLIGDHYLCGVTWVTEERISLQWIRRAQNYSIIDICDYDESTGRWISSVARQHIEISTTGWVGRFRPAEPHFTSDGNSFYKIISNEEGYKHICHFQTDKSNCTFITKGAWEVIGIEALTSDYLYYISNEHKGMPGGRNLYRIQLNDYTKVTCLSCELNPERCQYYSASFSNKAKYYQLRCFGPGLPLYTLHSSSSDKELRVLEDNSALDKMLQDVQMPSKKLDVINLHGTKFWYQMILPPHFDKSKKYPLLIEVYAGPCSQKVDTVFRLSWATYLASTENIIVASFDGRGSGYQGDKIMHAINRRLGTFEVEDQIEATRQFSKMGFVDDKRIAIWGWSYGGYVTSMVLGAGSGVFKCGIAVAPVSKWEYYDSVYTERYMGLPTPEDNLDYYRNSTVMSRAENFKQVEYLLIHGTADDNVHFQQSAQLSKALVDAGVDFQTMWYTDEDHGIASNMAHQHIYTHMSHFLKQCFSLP
Test: cell-based or functional assay
measured property: (IC50) in mmol/l, inhibition of DPP-IV (mmol/L)

VAPFPEV [VAPFPEV (SEQ ID NO: 4)] | 1.18
AVPYQR [AVPYQR (SEQ ID NO: 5)] | 5.7
VGVAPG [VGVAPG (SEQ ID NO: 7)] | 10.7

(P) GPL [GPL peptide]
(Q) AP [AP peptide]
(R) IPI [Diprotin A (IPI)]
Query: Kindly order the items shown according to (IC50) in mmol/l, inhibition of DPP-IV, from the highest value down. Provide the ranking by listing each label in its place in the requested order.
Result: Q, P, R
(Q: 4.78 mmol/L, P: 1.85 mmol/L, R: 0.0121 mmol/L)

(1) VAPG [VAPG (SEQ ID NO: 6)]
(2) VAP [VAP peptide]
Query: Of 1 and 2 , whose reported (IC50) in mmol/l, inhibition of DPP-IV is numerically smaller? Identify your pick by its label.
Result: 1
(1: 2.27 mmol/L, 2: 4.82 mmol/L)
